- Tested on: SK-MEL-5 melanoma
- protocol_text: NCI-60 one-dose screen, 48 h (100 = growth as untreated, 0 = no growth, -100 = all killed)
- condition_context: 10 µM
This is part of a sample that, as a whole, favours compounds with a hit. Of some 83,000 tested, about 20% had one in any assay.
experimental_endpoint: growth (%)

1) COc1cc(/C=C/C(=O)c2cc(-c3ccc(F)cc3)ccc2O)cc(OC)c1OC | 48.1
2) COc1cccc(C(=O)N(c2ccc(F)c(F)c2)C(C(=O)NC(C)(C)C)c2cc3c(C)cc(C)cc3nc2Cl)c1 (stereo not given) | 58.2
3) CN(C)c1ccc2c(c1)OC(N)=C(C#N)C2c1ccc2c(c1)CCCN2C (stereo not given) | 21.4
4) Cc1cc(C(C)(C)CC(C)(C)C)ccc1OCCOCC[N+](C)(C)Cc1ccccc1 | -95.8
5) N#Cc1c2c([nH]c(=O)c1C(N)=O)CCCCC2 | 95.8
6) CC(=O)Oc1ccc(C2=Cc3ccc(OC(C)=O)cc3OC2C)cc1 (stereo not given) | 50.2
7) CCCCCCCCCCCCc1ccc(C(=O)/C=C/C(=O)O)cc1 | 92.1
8) C[n+]1c(/C=C/c2c[nH]c3ccccc23)ccc2ccccc21 | 59.2
9) O=C(Cn1ccc(=O)[nH]c1=O)c1ccc([N+](=O)[O-])o1 | 90.7
10) COc1ccc2oc(=O)cc(C(c3ccc[nH]3)c3ccc[nH]3)c2c1 | -31.4

---

- System: SF-295 CNS
- protocol_text: NCI-60 one-dose screen, 48 h
- condition_context: 10 µM
- Method: Cells are grown in 96 well plates and exposed to the test compound for 48 hours. Compounds are tested at a single concentration, which is 10^-5 M for most compounds. The reported endpoint is percent growth (GI% or GIPRCNT), where numbers from 0 - 100% represent growth inhibition, and numbers from -100% - 0 represent cell death. For example, a value of 40 represents 60% growth inhibition. A value of 0 means no net growth occurred over the course of the experiment. […]
This is part of a sample that, as a whole, favours compounds with a hit. Of some 83,000 tested, about 20% had one in any assay. Active and inactive are the calls of the source. The calls were made as follows: active = growth percent below 10; inactive = the rest.
Outcomes: active, inactive

1) CC(C)OCc1cc(CN2CCN(c3cccc(Cl)c3)CC2)c(O)c2ncccc12 | active
2) Cc1cn(C(=O)/C(Cl)=C(/Cl)C(=O)O)c2ccccc12 | inactive
3) NC1CCC(Nc2nc(NCc3cc(Cl)ccc3O)c3ncn(C4CCCC4)c3n2)CC1 (stereo not given) | active
4) CCCCCCCCCCN=C(c1ccc(N(C)C)cc1)c1ccc(N(C)C)cc1 | inactive
5) Cc1cc(C(C)(C)CC(C)(C)C)ccc1OCCOCC[N+](C)(C)Cc1ccccc1 | active
6) O=C(NC1CCN(Cc2ccccc2)CC1)c1cc(-c2ccncc2)nc2ccc(Cl)cc12 | inactive
7) Cc1ccc(/C=C2\CN(Cc3cn(CCNc4ccnc5cc(Cl)ccc45)nn3)C/C(=C\c3ccc(C)cc3)C2=O)cc1 | active
8) CCc1cc2n(n1)-c1ncc(C(=O)OC)cc1Oc1ccccc1-2 | inactive
9) CNC(=O)c1cc(Oc2ccc(NC(=O)Nc3ccc(Cl)c(C(C)(C)C)c3)c(F)c2)ccn1 | inactive
10) CCc1c(C)[nH]c(=O)c(C(N)=O)c1C#N | inactive

Source of measurements: PubChem BioAssay (NCI)
